Readout name: melting point

{"Molecule": "CC(C)CCC1=CCC[C@@]2(C)CC[C@@H]3C[C@]12OC3(C)C [Example 5]", "Endpoint value": "38 to 39 °C"}
{"Molecule": "CCCC[C@H]1[C@@H](O)CC[C@@]2(C)CC[C@@H]3C[C@]12OC3(C)C [Example 22]", "Endpoint value": "47 to 48 °C"}
{"Molecule": "CC1(C)O[C@]23C[C@H]1CC[C@]2(C)CCC=C3Cc1ccccc1 [Example 7]", "Endpoint value": "49 to 50 °C"}
{"Molecule": "CC1(C)O[C@]23C[C@H]1CC[C@]2(C)CCC=C3Cc1ccc(F)cc1 [Example 8]", "Endpoint value": "131 to 133 °C"}
{"Molecule": "CCCC[C@]1(O)CCC[C@@]2(C)CC[C@@H]3C[C@@]21OC3(C)C [Example 16]", "Endpoint value": "70 to 72 °C"}
{"Molecule": "CC1(C)O[C@]23C[C@H]1CC[C@]2(C)CCC=C3Cc1ccc(Cl)cc1 [Example 10]", "Endpoint value": "87 to 88 °C"}
{"Molecule": "CC1(C)O[C@]23C[C@H]1CC[C@]2(C)CCC=C3CCO [Example 11]", "Endpoint value": "34 to 36 °C"}
{"Molecule": "CC1(C)O[C@]23C[C@H]1CC[C@]2(C)CC[C@](C)(O)C3 [Example 24]", "Endpoint value": "68 to 70 °C"}
{"Molecule": "CC1=C[C@@]23C[C@@H](CC[C@]2(C)CC1)C(C)(C)O3 [Example 32]", "Endpoint value": "38 to 39 °C"}
{"Molecule": "CCCC[C@@]1(O)CCC[C@@]2(C)CC[C@@H]3C[C@@]21OC3(C)C [Example 21]", "Endpoint value": "90 to 92 °C"}
{"Molecule": "CCCC[C@H]1C(=O)CC[C@@]2(C)CC[C@@H]3C[C@]12OC3(C)C [Example 23]", "Endpoint value": "64 to 66 °C"}
{"Molecule": "CC(=O)CCC1=CCC[C@@]2(C)CC[C@@H]3C[C@]12OC3(C)C [Example 29]", "Endpoint value": "59 to 62 °C"}
